- Assay System: T1, human CD200R1 expressed on cells (Jurkat-CD200R1, U937-CD200R1, HH cells) (human, UniProt Q8TD46 25-348)
- T1 construct: whole, on cells; also called HH (CRL-2105); cell surface-expressed CD200R1
- T1 sequence (looked up): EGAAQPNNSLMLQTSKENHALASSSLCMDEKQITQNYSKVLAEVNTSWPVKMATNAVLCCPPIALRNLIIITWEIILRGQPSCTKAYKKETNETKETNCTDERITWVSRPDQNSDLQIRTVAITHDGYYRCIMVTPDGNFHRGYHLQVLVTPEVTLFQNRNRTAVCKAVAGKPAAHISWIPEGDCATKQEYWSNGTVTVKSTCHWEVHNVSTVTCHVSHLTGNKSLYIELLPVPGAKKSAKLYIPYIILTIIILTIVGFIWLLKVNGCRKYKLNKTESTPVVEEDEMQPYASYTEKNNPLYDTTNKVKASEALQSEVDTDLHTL
- Measurement Description: flow cytometry, Jurkat-CD200R cells
# EC50 per record follows

For orientation, consider the following solved cases.
Binder	Meas Value
P001009 (IgG) (antibody, V domains shown, also called P001009 WT; P001009 wt) VH: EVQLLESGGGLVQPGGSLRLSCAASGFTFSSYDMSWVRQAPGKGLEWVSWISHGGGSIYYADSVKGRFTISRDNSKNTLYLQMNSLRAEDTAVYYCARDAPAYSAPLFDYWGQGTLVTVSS VL: QSVLTQPPSASGTPGQRVTISCSGSSSNIGNNAVNWYQQLPGTAPKLLIYYDSNRPSGVPDRFSGSKSGTSASLAISGLRSEDEADYYCAAWDDSLSGYVFGGGTKLTVL	0.22 nM
P001009v4 (antibody, V domains shown, P001009 with LC N31K (Kabat); also called P019001v4) VH: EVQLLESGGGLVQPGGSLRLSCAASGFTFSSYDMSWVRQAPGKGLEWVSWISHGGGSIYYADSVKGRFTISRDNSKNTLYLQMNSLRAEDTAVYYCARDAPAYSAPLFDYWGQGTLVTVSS VL: QSVLTQPPSASGTPGQRVTISCSGSSSNIGNKAVNWYQQLPGTAPKLLIYYDSNRPSGVPDRFSGSKSGTSASLAISGLRSEDEADYYCAAWDDSLSGYVFGGGTKLTVL	2.37 nM
P001009v2 (antibody, V domains shown, P001009 with LC S52K and D93R (Kabat); also called P019001v2) VH: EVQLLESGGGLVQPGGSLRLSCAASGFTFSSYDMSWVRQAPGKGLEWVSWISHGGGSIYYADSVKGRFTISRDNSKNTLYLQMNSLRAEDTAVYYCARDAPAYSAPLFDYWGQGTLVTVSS VL: QSVLTQPPSASGTPGQRVTISCSGSSSNIGNNAVNWYQQLPGTAPKLLIYYDKNRPSGVPDRFSGSKSGTSASLAISGLRSEDEADYYCAAWDRSLSGYVFGGGTKLTVL	3.08 nM

Now let's try a different one.
Item under review: P001009v1 (antibody, V domains shown, P001009 with LC S52K and S94R (Kabat); also called P019001v1; P0001009v1) VH: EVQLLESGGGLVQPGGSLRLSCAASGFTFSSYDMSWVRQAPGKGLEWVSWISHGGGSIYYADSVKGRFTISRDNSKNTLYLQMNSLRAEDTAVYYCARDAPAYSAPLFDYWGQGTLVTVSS VL: QSVLTQPPSASGTPGQRVTISCSGSSSNIGNNAVNWYQQLPGTAPKLLIYYDKNRPSGVPDRFSGSKSGTSASLAISGLRSEDEADYYCAAWDDRLSGYVFGGGTKLTVL . Reported EC50?
0.17 nM
